Test name: Single-dose pharmacokinetics in mice: tissue levels (heart, liver, kidney, skeletal muscle) by UPLC-MS/MS
Assay type: in vivo
Experimental conditions: both sexes, C57BL/6N, mouse, heart, po, 100 mg/kg, oral 100 mg/kg, peak (1 h), read-out: absolute inhibitor concentration in heart
Property measured: concentration at 1 h

CC(=O)N1CCC(Nc2cc(C(=O)NC[C@H](O)CN3CCc4ccccc4C3)ncn2)CC1 [GSK3326595] | 82700 ng/g

====

Test name: Single-dose pharmacokinetics in mice: plasma levels by UPLC-MS/MS
Format: in vivo
Experimental conditions: both sexes, C57BL/6N, mouse, plasma, po
From the text: All animal studies were approved by and conducted in accordance with the German Animal Welfare Act and approved by the Animal Experiment Review Board of the Regierungspräsidium Karlsruhe, Germany. The study refers to the application […]-19. C57BL/6N mice were purchased from Charles River at the age of 12 weeks. Male and female mice were included in an equal ratio. […]
Property measured: bioavailability (%)

CC(=O)N1CCC(Nc2cc(C(=O)NC[C@H](O)CN3CCc4ccccc4C3)ncn2)CC1 | 5.7

All values here come from paper PMC13594947.
